# Procedure text: chemical genetic growth profiling, strain panel (AID 1159580);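 also: tested at 20 µM; growth read once vehicle control cultures reached saturation at 30 °C; 1 = growth at the plate median or of vehicle wells; lower values mean less growth of the strain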
# Condition summary: S. cerevisiae deletion strains, growth OD, locus YLL001W, strain dnm1
Hit rate of the full screen: of about 5,500 compounds, about 2,000 (36%) were called active. About 18% were inconclusive and are not listed. Rule as the data show it: active = normalized growth mostly below about 0.91 (no sharp cut-off); inconclusive = no clear call, values can overlap the other calls; inactive = mostly above about 0.92. This is one part of the list.
Just give me one of these, please: Yes (active), No (inactive)

CO/N=C(/C(=O)NC1C(=O)N2C(C(=O)OCOC(=O)C(C)(C)C)=C(/C=C\c3scnc3C)CSC12)c1csc(N)n1 (stereo unspecified) : No
CON : No
CC(C)[C@@H]1CC[C@@H](C)CC1=O : No
NC(=NCCCCCCN=C(N)N=C(N)Nc1ccc(Cl)cc1)N=C(N)Nc1ccc(Cl)cc1 : Yes
CC(C)CCCC(C)N (stereo unspecified) : No

Exercise: Given CC(C)C1CCC(C(=O)N[C@@H](Cc2ccccc2)C(=O)O)CC1 (stereo partly specified) , state the outcome it received in this test.
Key: No

###

# Procedure text: chemical genetic growth profiling, strain panel (AID 1159580);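 also: tested at 20 µM; growth read once vehicle control cultures reached saturation at 30 °C; 1 = growth at the plate median or of vehicle wells; lower values mean less growth of the strain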
# Condition summary: S. cerevisiae deletion strains, growth OD, locus YNL298W, strain CLA4, hits give low values
Out of some 5,500 compounds screened, about 2,000 (36%) were called active. Inconclusive results (about 18%) are left out. The list shows a part of the results.
Value kind: normalized growth
Just the number.

CN1CCC[C@H]1c1cccnc1 : 1
COc1cc(O)ccc1C(C)=O : 0.981
NS(=O)(=O)c1cc2c(cc1Cl)NCNS2(=O)=O : 1
CNC(=O)N(C)c1nnc(C(C)(C)C)s1 : 1.03
CC(C)Cn1c(=O)n(C)c(=O)c2[nH]cnc21 : 0.983

Exercise: Value lookup for normalized growth; key = C[N+]1(C)CCCC(OC(=O)C(O)(c2ccccc2)c2ccccc2)C1 (stereo unspecified)
Key: 0.968

Exercise: Lookup `O=C(CCc1ccc(O)cc1)c1c(O)cc(O)cc1O`
Key: 1.03

Exercise: Lookup `O=C(O)c1cc(=O)c2ccccc2[nH]1`
Key: 1

Exercise: Lookup CNC(C)[C@@H]1CC[C@@H](N)[C@@H](OC2[C@@H](N)C[C@@H](N)[C@H](OC3OC[C@](C)(O)[C@H](NC)[C@H]3O)[C@H]2O)O1 (stereo partly specified)
Key: 1.02

Exercise: Lookup `CC1=C(C(=O)O)N2C(=O)[C@@H](NC(=O)[C@@H](N)c3ccc(O)cc3)[C@H]2SC1`
Key: 0.981

Exercise: Lookup CC(C)C1CCC(C(=O)N[C@@H](Cc2ccccc2)C(=O)O)CC1 (stereo partly specified)
Key: 1.01

###

# Procedure text: chemical genetic growth profiling, strain panel (AID 1159580);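 also: tested at 20 µM; growth read once vehicle control cultures reached saturation at 30 °C; 1 = growth at the plate median or of vehicle wells; lower values mean less growth of the strain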
# Condition summary: S. cerevisiae deletion strains, growth OD, locus YDR502C, strain sam2
Among all 5,500 compounds or so, about 2,000 (36%) were called active. Another 18% or so got no clear call; they are omitted. No stated cut-off is given here; in the data, active means normalized growth mostly below about 0.91 (no sharp cut-off); inconclusive means no clear call, values can overlap the other calls; inactive means mostly above about 0.92. The list shows a part of the results.
Just give me one of these, please: active, inactive

The following molecules have reported results that may help.
O=C(/C=C/c1ccccc1)c1ccc(O[C@@H]2O[C@H](CO)[C@@H](O)[C@H](O)[C@H]2O)cc1O : active
CCCc1ncc(C[n+]2ccccc2C)c(N)n1 : inactive
COc1cc(OC)c2c(OC)c(-c3ccc4c(c3)OCO4)c(=O)oc2c1 : inactive
CNC(C)[C@@H]1CC[C@@H](N)[C@@H](OC2[C@@H](N)C[C@@H](N)[C@H](OC3OC[C@](C)(O)[C@H](NC)[C@H]3O)[C@H]2O)O1 (stereo not given in full) : inactive
COc1ccc(-c2c(O)c3c(OC)c4c(cc3oc2=O)OC(C)(C)C=C4)cc1 : active

Exercise: Given `CC(C)=CCC/C(C)=C/CO` , state the outcome it received in this test.
Key: inactive

Exercise: Lookup `O=C(/C=C/c1ccccc1)c1c(O)cc(O)cc1O`
Key: inactive

Exercise: Lookup `O[C@H]1[C@H](O)[C@@H](O)C2OC[C@H]1O2`
Key: inactive

Exercise: Lookup COC(=O)C[C@H]1C(C)(C)[C@H](O)[C@@H]2CC3=C4CC(O)O[C@@H](c5ccoc5)[C@]4(C)CCC3[C@@]1(C)C2=O (stereo not given in full)
Key: inactive

Exercise: Lookup `CNC(=O)N(C)c1nnc(C(C)(C)C)s1`
Key: inactive
